# assay: qHTS Assay for Lipid Storage Modulators in Drosophila S3 Cells;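 on cell number change: cells counted by Cell Tracker Red CMTPX staining in the red channel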
# conditions-used: BODIPY lipid droplet fluorescence, 18-24 h, cells fed with added oleic acid; measured here: cell count max response
Hit rate of the full screen: of about 320,000 compounds, about 2,100 (0.66%) were called active. Not shown: some 53% with an inconclusive outcome. The entries come from a sample that favours actives as a whole.

- compound: "COc1cccc(NC(=O)COc2ccc(C(=O)N3CCN(C)CC3)cc2)c1"
  cell number change: "10.4%"
- compound: "Cc1cc(C)c(C)c(OCCN2CCOCC2)c1"
  cell number change: "-23.8%"
- compound: "CN(/N=C/c1cc(Cl)ccc1O)C1=NS(=O)(=O)c2ccccc21"
  cell number change: "12.6%"
- compound: "COc1ccc(NC(=O)c2cccs2)cc1"
  cell number change: "-1.91%"
- compound: "O=C(O)CCC(=O)Nc1ccc(OCC2CCCO2)cc1 (centres undefined)"
  cell number change: "20.5%"
- compound: "COc1ccc(C(O)(C(=O)NNc2ccc(C)cc2)c2cccs2)cc1 (centres undefined)"
  cell number change: "10.5%"
- compound: "Cc1ccc(C(O)(C(=O)NNc2ccc3ccccc3n2)c2ccc(C)cc2)cc1"
  cell number change: "-2.27%"
- compound: "CN=C1SC(CC(=O)Nc2ccc(F)cc2F)C(=O)N1/N=C(\\C)c1cccc(OCC(=O)O)c1 (centres undefined)"
  cell number change: "5.65%"
- compound: "CS(=O)(=O)c1ccc(C(=O)NCc2ccc(F)cc2)cc1"
  cell number change: "23%"
- compound: "COc1ccccc1NC(=O)c1ccc(NC(=O)CSc2ncn[nH]2)cc1"
  cell number change: "-3.32%"
- compound: "Cc1cccc(NC(=O)c2cc3c(=O)n4ccccc4nc3n(CC(C)C)c2=N)c1"
  cell number change: "2.38%"
- compound: "COc1cccc(/C=N/N(C)C2=NS(=O)(=O)c3ccccc32)c1O"
  cell number change: "12.6%"
- compound: "CCn1nc(NS(=O)(=O)c2ccc(NC(C)=O)cc2)c2cc3ccccc3nc21"
  cell number change: "-12.4%"
- compound: "Cc1cccc(OCCOCCN2CCOCC2)c1C"
  cell number change: "8.47%"
- compound: "COc1cccc(NC(=S)N2CCN(C)CC2)c1"
  cell number change: "-7.43%"
- compound: "CCOC(=O)C1(Cc2ccccc2)CCN(Cc2cn[nH]c2-c2ccccc2)CC1"
  cell number change: "4.32%"
- compound: "CCCc1cc(=O)c2c(O)cccc2o1"
  cell number change: "-3.96%"
- compound: "CCn1cnc2c1c(=O)n(CC(=O)OC(C)C(N)=O)c(=O)n2Cc1ccccc1 (centres undefined)"
  cell number change: "10.8%"
- compound: "Cc1ccc(C)c(OCCOCCN2CCOCC2)c1"
  cell number change: "3.66%"
- compound: "O=[N+]([O-])c1cccc(S(=O)(=O)N/N=C\\c2ccc3c(c2)OCO3)c1"
  cell number change: "-21.8%"
- compound: "COC(=O)c1sccc1NC(=O)COc1ccc(F)cc1Cl"
  cell number change: "0.149%"
- compound: "CC(C)CC(=O)Nc1ccc(C(=O)CN2CCC(C)CC2)cc1"
  cell number change: "11.5%"
- compound: "COc1ccc(N2CCN(CC(=O)c3ccccc3)CC2)cc1"
  cell number change: "8.26%"
- compound: "CCC(=O)Nc1ccc2c(c1)ncn2-c1ccc(C)cc1"
  cell number change: "19.8%"

###

# assay: qHTS Assay for Lipid Storage Modulators in Drosophila S3 Cells;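 on cell number change: cells counted by Cell Tracker Red CMTPX staining in the red channel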
# conditions-used: BODIPY lipid droplet fluorescence, 18-24 h, cells fed with added oleic acid; measured here: cell count max response
Screen size: about 320,000 compounds; about 2,100 (0.66%) were called active. Not shown: some 53% with an inconclusive outcome. The entries come from a sample that favours actives as a whole.
Parameter cell number change: see the listing below.
experimental-readout: cell number change

- molecule: "COc1ccccc1C(=O)Nc1nnc(SCC(=O)NCc2ccco2)s1"
  value: "-7.8%"
- molecule: "Cc1onc(-c2ccccc2)c1C(=O)Nc1ccncc1"
  value: "12.5%"
- molecule: "CC(=O)c1ccc(NC(=O)CCCN2C(=O)C(c3ccccc3)Oc3cccnc32)cc1 (stereo unspecified)"
  value: "-3.13%"
- molecule: "CCCN1CCN(C(=O)c2noc3c2COc2ccc(C)cc2-3)CC1"
  value: "-19.6%"
- molecule: "CCC(C)c1ccc(S(=O)(=O)N2CCN3CCCC3C2)cc1 (stereo unspecified)"
  value: "-6.32%"
- molecule: "O=C(NNC1CC(=O)N(c2ccc(Cl)cc2)C1=O)c1ccccn1 (stereo unspecified)"
  value: "6.05%"

###

# assay: qHTS Assay for Lipid Storage Modulators in Drosophila S3 Cells; further: potency means the concentration at half of the fitted maximal effect
# conditions-used: BODIPY lipid droplet fluorescence, 18-24 h, cells fed with added oleic acid; series mostly up to 46.1 µM
# Source text: NIH Molecular Libraries Probe Production Centers Network [MLPCN] NIH Chemical Genomics Center [NCGC] […] Triacsin C (Sigma-Aldrich T-4540), an inhibitor of long-chain fatty acyl CoA synthetase that blocks synthesis of triglycerides, was used as a positive control for lipid under-storage. […] Fluorescence was detected by excitation of the fluorophores with a 488-nm laser on an Acumen Explorer (TTP Lab Tech). […] Cells were detected using channel 3 (575-640 nm) with 5-um width and 100-um depth filters. […]
The whole screen tested about 320,000 compounds, of which about 2,100 (0.66%) were called active. Roughly 53% stayed inconclusive and do not appear here. The entries come from a sample that favours actives as a whole.
experimental-readout: Potency

- molecule: "CC(C)[C@H](NC(=O)c1ccco1)C(=O)NCc1ccccc1"
  value: "inactive"
- molecule: "O=[N+]([O-])c1ccc(NC(=S)N2CCOCC2)cc1"
  value: "inactive"
- molecule: "CC(C)C(NC(=O)c1ccco1)C(=O)NCc1ccc(C(=O)O)cc1 (stereo not drawn)"
  value: "6.51 µM (active)"
- molecule: "CCc1ccc(NC(=O)CN2C(=O)CC(C)S(=O)(=O)c3ccccc32)cc1 (stereo not drawn)"
  value: "20.6 µM (active)"
- molecule: "O=C1c2ccccc2C(=O)c2c1cccc2N1CCN(Cc2ccccc2)CC1"
  value: "18.4 µM (active)"
- molecule: "Cc1ccc(N=Nc2ccc(O)c3ncccc23)cc1"
  value: "inactive"
- molecule: "Cc1[nH]c2ccccc2c1/C=N/NC(=O)c1cc(C(C)C)[nH]n1"
  value: "inactive"
- molecule: "CC(=C1C(=O)c2ccccc2C1=O)N1CCN(Cc2ccccc2)CC1"
  value: "inactive"
- molecule: "CCCCN(C(=O)c1ccccc1F)c1c(N)n(CCC)c(=O)[nH]c1=O"
  value: "inactive"
- molecule: "O=C(CNc1ccc(F)cc1)N/N=C/c1c(O)ccc2ccccc12"
  value: "inactive"
- molecule: "O=C(O)c1cc(N=Nc2c(O)ccc3ccccc23)cc(C(=O)O)c1"
  value: "inactive"
- molecule: "COc1ccccc1C1=CC(=O)C[C@H](c2ccc(Cl)cc2)C1"
  value: "inactive"
- molecule: "O=C(CN1C(=O)CCS(=O)(=O)c2ccccc21)Nc1cccc(F)c1"
  value: "23.1 µM (active)"
- molecule: "CCC(=O)NC(=S)Nc1ccc(NC(=O)c2ccc([N+](=O)[O-])cc2Cl)cc1"
  value: "inactive"
- molecule: "CCOc1c(Br)cc(CNc2ccc(N3CCOCC3)cc2)cc1OC"
  value: "inactive"
- molecule: "OCCC1CN(Cc2cnc(-c3ccccc3)s2)CCN1Cc1ccccc1 (stereo not drawn)"
  value: "inactive"
- molecule: "CCCCn1c(N)c(N(CC)C(=O)c2ccccc2C(F)(F)F)c(=O)[nH]c1=O"
  value: "inactive"
- molecule: "S=C(NCc1ccccc1)NCc1cccc(Cl)c1"
  value: "inactive"
- molecule: "COc1ccc(NC(=O)CN2C(=O)CC(C)S(=O)(=O)c3ccccc32)cc1 (stereo not drawn)"
  value: "inactive"
- molecule: "Cc1ccc(S(=O)(=O)N/N=C\\C=C\\c2ccccc2)cc1"
  value: "inactive"
- molecule: "Cc1ccc(N=Nc2ccc(C)cc2NC(=O)Nc2ccccc2F)cc1"
  value: "inactive"
- molecule: "COC(=O)c1cccc(NC(=O)NC(=O)c2ccccc2Cl)c1"
  value: "inactive"
- molecule: "O=c1[nH]ncc(N2CCN(Cc3ccccc3)CC2)c1Cl"
  value: "inactive"

###

# assay: qHTS Assay for Lipid Storage Modulators in Drosophila S3 Cells;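 on cell number change: cells counted by Cell Tracker Red CMTPX staining in the red channel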
# conditions-used: BODIPY lipid droplet fluorescence, 18-24 h, cells fed with added oleic acid; measured here: cell count max response
Hit rate of the full screen: of about 320,000 compounds, about 2,100 (0.66%) were called active. About 53% were inconclusive and are not listed. The entries come from a sample that favours actives as a whole.
experimental-readout: cell number change (%)

- compound: "Cc1ccc(S(=O)(=O)Nc2ccc3nc(C)sc3c2)cc1"
  unit-abbrev: "%"
  value: -22.9
- compound: "Cc1nc2ccc(NS(=O)(=O)c3ccc(F)cc3)cc2s1"
  unit-abbrev: "%"
  value: 20
- compound: "Cn1nccc1NC(=O)COCC(=O)O"
  unit-abbrev: "%"
  value: 11.4
- compound: "Cc1noc(C)c1COc1ccc(C(=O)N(C)CCOc2ccccc2)cc1"
  unit-abbrev: "%"
  value: -18.6
- compound: "Fc1ccc(-n2c(CN3CCCCC3)n[nH]c2=S)cc1"
  unit-abbrev: "%"
  value: -100
- compound: "Cc1noc(C)c1COc1ccc(C(=O)NCCc2ccc(S(N)(=O)=O)cc2)cc1"
  unit-abbrev: "%"
  value: 9.63
- compound: "O=C(O)c1cccc2c1C(=O)N(c1ccccc1)C2"
  unit-abbrev: "%"
  value: -2.23
- compound: "O=C(N/N=C/c1ccncc1)c1ccc2c(c1)OCO2"
  unit-abbrev: "%"
  value: -3.13
- compound: "CC1CN(C(=O)Cn2c(=O)oc3ccccc32)CC(C)O1 (configuration not stated)"
  unit-abbrev: "%"
  value: 13.4
- compound: "CNCC(=O)N1CCN(c2ncc(C(F)(F)F)cc2Cl)CC1"
  unit-abbrev: "%"
  value: -11.3
- compound: "CC1CN(C(=O)c2cccc(C(=O)N3CC(C)OC(C)C3)c2)CC(C)O1 (configuration not stated)"
  unit-abbrev: "%"
  value: 7.82
- compound: "CC1CN(C(=O)CN2C(=O)c3ccccc3C2=O)CC(C)O1 (configuration not stated)"
  unit-abbrev: "%"
  value: -24.9
- compound: "O=C1CC(c2ccco2)CC(O)=C1C=Nc1ccccc1-c1ccccc1 (configuration not stated)"
  unit-abbrev: "%"
  value: 5.01
- compound: "O=Cc1ccc(OCC(=O)Nc2ccccc2-c2ccccc2)cc1"
  unit-abbrev: "%"
  value: 18
- compound: "Cc1ccc(S(=O)(=O)Nc2ccc3nc(C)sc3c2)c(C)c1"
  unit-abbrev: "%"
  value: 24.9
- compound: "CCOc1ccc(CCNC(=O)c2ccc(OCc3c(C)noc3C)cc2)cc1OCC"
  unit-abbrev: "%"
  value: 14.1
- compound: "CCOc1ccc(CCNC(=O)c2cccc(-n3cnnn3)c2)cc1OCC"
  unit-abbrev: "%"
  value: -24.8
- compound: "O=C1CC(c2ccco2)CC(O)=C1C=Nc1cc(Cl)cc(Cl)c1 (configuration not stated)"
  unit-abbrev: "%"
  value: 13.6
- compound: "COC(=O)c1ccc2c(=O)n(-c3ccccc3)c(=S)[nH]c2c1"
  unit-abbrev: "%"
  value: 5.89
- compound: "Cc1noc(C)c1COc1ccc(C(=O)NNC(=O)c2ccccc2)cc1"
  unit-abbrev: "%"
  value: 2.9
- compound: "COc1ccc(CNC(=O)CCn2c(=O)c3cccn3c3ccc(F)cc32)cc1"
  unit-abbrev: "%"
  value: -3.83
- compound: "C=CCN(Cc1nc(-c2ccccc2)no1)C(=O)c1ccoc1C"
  unit-abbrev: "%"
  value: 33.5
- compound: "Cc1cc(NC(=O)CSc2nnc(-c3ccco3)n2C)no1"
  unit-abbrev: "%"
  value: 17.5
- compound: "CCC(=O)Nc1ccc(NC(=O)CSc2nnc(-c3ccco3)n2C)cc1"
  unit-abbrev: "%"
  value: 8.55
- compound: "Cc1ccc(S(=O)(=O)Nc2ccc3nc(N)sc3c2)cc1"
  unit-abbrev: "%"
  value: -27.3
- compound: "CCOc1ccc(CCNC(=O)c2ccccc2OCc2c(C)noc2C)cc1OCC"
  unit-abbrev: "%"
  value: 4.08
- compound: "Cn1c(SCC(=O)Nc2ccc(Cl)cc2F)nnc1-c1ccco1"
  unit-abbrev: "%"
  value: 9.91
- compound: "CCOc1ccc(CCNC(=O)c2cc(C)on2)cc1OCC"
  unit-abbrev: "%"
  value: 4.47
- compound: "CC(C)(C)c1ccc(/C=N/NC(=O)c2ccccn2)cc1"
  unit-abbrev: "%"
  value: 6.33
- compound: "CCOc1ccc(CCNC(=O)c2cc(C)nc3ccccc23)cc1OCC"
  unit-abbrev: "%"
  value: 1.62
- compound: "COc1cc(C(c2sc3ncnn3c2O)N2CCN(c3ccccc3F)CC2)cc(OC)c1OC (configuration not stated)"
  unit-abbrev: "%"
  value: 14.8
- compound: "Cn1nnnc1SCC(=O)Nc1ccccn1"
  unit-abbrev: "%"
  value: -3.74
- compound: "CCC(CC)NC(=O)Nc1ccc(C)cc1"
  unit-abbrev: "%"
  value: -11.1
- compound: "O=C1CC(c2ccco2)CC(O)=C1C=Nc1cc(Cl)ccc1Cl (configuration not stated)"
  unit-abbrev: "%"
  value: 10.5
- compound: "Cc1noc(C)c1COc1ccc(C(=O)O)cc1"
  unit-abbrev: "%"
  value: 4.42
- compound: "O=C1C2CCCN2C(c2cccs2)N1c1ccc(F)cc1 (configuration not stated)"
  unit-abbrev: "%"
  value: -1.44
- compound: "CCCCNC(=O)CCn1c(=O)c2cccn2c2ccc(F)cc21"
  unit-abbrev: "%"
  value: -8.11
- compound: "COc1ccc(NC(=O)CCn2c(=O)c3cccn3c3ccccc32)cc1"
  unit-abbrev: "%"
  value: -20.6
- compound: "COCCn1c(=O)[nH]c(=O)c2c(C(F)(F)F)cc(-c3cccs3)nc21"
  unit-abbrev: "%"
  value: 6.31
- compound: "CCn1nc(C)c(CN2CCCC(CO)(Cc3ccccc3)C2)c1C (configuration not stated)"
  unit-abbrev: "%"
  value: 6.82
- compound: "O=C(Nc1ccc(Cl)cc1)C1CCCC1"
  unit-abbrev: "%"
  value: -15.4
- compound: "COc1cc(NC(=O)c2ccc([N+](=O)[O-])cc2)c(OC)cc1NC(=O)CC(C)C"
  unit-abbrev: "%"
  value: 14.3
- compound: "O=C(O)c1ccccc1C(=O)N1CC=C(c2ccccc2)CC1"
  unit-abbrev: "%"
  value: 1.73
- compound: "O=C(Nc1ccc(S(=O)(=O)N2CCCCC2)cc1)C1CC1"
  unit-abbrev: "%"
  value: 19.3
- compound: "O=C(Nc1cc(Cl)cc(Cl)c1)C1CCCC1"
  unit-abbrev: "%"
  value: -3.7
- compound: "FC(F)(F)c1ccccc1-n1c(CN2CCCCC2)n[nH]c1=S"
  unit-abbrev: "%"
  value: -9.97
- compound: "Cc1nc2ccc(NS(=O)(=O)c3ccc(F)cc3F)cc2s1"
  unit-abbrev: "%"
  value: -1.41
